# subject of test: NaV1.8 (Homo sapiens, UniProt Q9Y5Y9)
# assay explanation: Activity against NaV 1.8 channel (Table 3), optical membrane potential / electrophysiology assays
# Format: cell-based
readout kind: IC50

As a guide, the following entries are already answered.
[[record]]
smiles_structure = "CC(C)(C)c1ccc(C(=O)Nc2ccc(Cl)c(S(N)(=O)=O)c2)cc1"
subject_of_test = "NaV1.8 (Homo sapiens, UniProt Q9Y5Y9)"
observed_measurement = "< 2 µM"

[[record]]
smiles_structure = "CC(C)(C)c1ccc(C(=O)Nc2cccc(S(N)(=O)=O)c2)c(Sc2ccccc2)c1"
subject_of_test = "NaV1.8 (Homo sapiens, UniProt Q9Y5Y9)"
observed_measurement = "< 2 µM"

[[record]]
smiles_structure = "NS(=O)(=O)c1cccc(NC(=O)c2cccc(-n3cccn3)c2)c1"
subject_of_test = "NaV1.8 (Homo sapiens, UniProt Q9Y5Y9)"
observed_measurement = "> 10 µM"

[[record]]
smiles_structure = "NS(=O)(=O)c1cccc(NC(=O)c2ccc(-c3ccccc3)cc2)c1"
subject_of_test = "NaV1.8 (Homo sapiens, UniProt Q9Y5Y9)"
observed_measurement = "> 10 µM"

[[record]]
smiles_structure = "NS(=O)(=O)c1cccc(NC(=O)c2cccc(OC(F)(F)F)c2)c1"
subject_of_test = "NaV1.8 (Homo sapiens, UniProt Q9Y5Y9)"
observed_measurement = "> 10 µM"


Kindly consider the entry below.
Problem: Fill in the recorded IC50 for this molecule, with NaV1.8 (Homo sapiens, UniProt Q9Y5Y9) as test system: Cc1ccc(C(=O)Nc2cccc(S(N)(=O)=O)c2)cc1
Result: > 10 µM

----------
# subject of test: NaV1.8 (Homo sapiens, UniProt Q9Y5Y9)
# assay explanation: Activity against NaV 1.8 channel (Table 3), optical membrane potential / electrophysiology assays
# Type: cell-based
pIC50: −log10 of the molar value.
readout kind: pIC50

As a guide, the following entries are already answered.
[[record]]
smiles_structure = "CCCOc1ccccc1C(=O)Nc1cccc(S(N)(=O)=O)c1"
observed_measurement = "< 5.00"

[[record]]
smiles_structure = "NS(=O)(=O)c1cccc(NC(=O)c2ccc3c(c2)OCO3)c1"
observed_measurement = "< 5.00"

[[record]]
smiles_structure = "Cc1ccc(S(N)(=O)=O)cc1NC(=O)c1ccc(Cl)cc1[N+](=O)[O-]"
observed_measurement = "< 5.00"

[[record]]
smiles_structure = "CC(C)(C)c1ccc(C(=O)Nc2cccc(S(N)(=O)=O)c2)c(Oc2ccc(C#N)cc2)c1"
observed_measurement = "> 5.70"

[[record]]
smiles_structure = "Cc1ccc(Oc2cc(C(C)(C)C)ccc2C(=O)Nc2cccc(S(N)(=O)=O)c2)c(C)c1"
observed_measurement = "> 5.70"

[[record]]
smiles_structure = "Cc1ccc(Oc2ccccc2C(=O)Nc2cccc(S(N)(=O)=O)c2)cc1"
observed_measurement = "5.00 to 5.70"

[[record]]
smiles_structure = "COc1ccc(C(=O)Nc2cccc(S(N)(=O)=O)c2)c(C)c1"
observed_measurement = "< 5.00"

[[record]]
smiles_structure = "NS(=O)(=O)c1cccc(NC(=O)c2ccc(Cl)cc2Cl)c1"
observed_measurement = "< 5.00"

[[record]]
smiles_structure = "COc1cc(C)c(S(N)(=O)=O)cc1NC(=O)c1ccc(C(C)(C)C)cc1"
observed_measurement = "< 5.00"

[[record]]
smiles_structure = "CCCCOc1ccc(C(=O)Nc2cccc(S(N)(=O)=O)c2)cc1"
observed_measurement = "< 5.00"


Problem: Fill in the recorded pIC50 for this compound, with NaV1.8 (Homo sapiens, UniProt Q9Y5Y9) as test system: CC(=O)c1cccc(Oc2cc(C(C)(C)C)ccc2C(=O)Nc2cccc(S(N)(=O)=O)c2)c1
Result: > 5.70

Problem: Fill in the recorded pIC50 for this compound, with NaV1.8 (Homo sapiens, UniProt Q9Y5Y9) as test system: Cc1ccc(Oc2cc(C(C)(C)C)ccc2C(=O)Nc2cccc(S(N)(=O)=O)c2)cn1
Result: > 5.70

Problem: Fill in the recorded pIC50 for this compound, with NaV1.8 (Homo sapiens, UniProt Q9Y5Y9) as test system: COc1ccccc1C(=O)Nc1cccc(S(N)(=O)=O)c1
Result: < 5.00
